Tested on: B. subtilis 168;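 further: OD595 on entry to stationary phase over no-drug wells; at most 1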
Experiment: fitness (endpoint OD595 vs no drug) (fraction); higher = more growth
Details: first compound 37.5 µg/mL; partner 0.0625 µg/mL; main component drawn

COMPOUND | fitness
CC[C@H](C)[C@H](N)C1=N[C@H](C(=O)N[C@@H](CC(C)C)C(=O)N[C@H](CCC(=O)O)C(=O)N[C@H](C(=O)N[C@H]2CCCCNC(=O)[C@H](CC(N)=O)NC(=O)[C@@H](CC(=O)O)NC(=O)[C@H](Cc3cnc[nH]3)NC(=O)[C@@H](Cc3ccccc3)NC(=O)[C@H]([C@@H](C)CC)NC(=O)[C@@H](CCCN)NC2=O)[C@@H](C)CC)CS1 [Bacitracin] + CCC[C@@H]1C[C@@H](C(=O)N[C@@H]([C@H]2O[C@H](SC)[C@H](O)[C@@H](O)[C@H]2O)[C@H](C)Cl)N(C)C1 [Clindamycin] | 0.649
CC[C@H](C)[C@H](N)C1=N[C@H](C(=O)N[C@@H](CC(C)C)C(=O)N[C@H](CCC(=O)O)C(=O)N[C@H](C(=O)N[C@H]2CCCCNC(=O)[C@H](CC(N)=O)NC(=O)[C@@H](CC(=O)O)NC(=O)[C@H](Cc3cnc[nH]3)NC(=O)[C@@H](Cc3ccccc3)NC(=O)[C@H]([C@@H](C)CC)NC(=O)[C@@H](CCCN)NC2=O)[C@@H](C)CC)CS1 [Bacitracin] + C[C@H]1COc2c(N3CCN(C)CC3)c(F)cc3c(=O)c(C(=O)O)cn1c23 [Levofloxacin] | 0.0345
CC[C@H](C)[C@H](N)C1=N[C@H](C(=O)N[C@@H](CC(C)C)C(=O)N[C@H](CCC(=O)O)C(=O)N[C@H](C(=O)N[C@H]2CCCCNC(=O)[C@H](CC(N)=O)NC(=O)[C@@H](CC(=O)O)NC(=O)[C@H](Cc3cnc[nH]3)NC(=O)[C@@H](Cc3ccccc3)NC(=O)[C@H]([C@@H](C)CC)NC(=O)[C@@H](CCCN)NC2=O)[C@@H](C)CC)CS1 [Bacitracin] + CC1=C\[C@@H](O)CC(=O)Cc2nc(co2)C(=O)N2CCC=C2C(=O)O[C@H](C(C)C)[C@H](C)/C=C/C(=O)NC\C=C\1 [Virginiamycin M1] | 0.986
